Target: HTH-type transcriptional regulator LuxR (Vibrio harveyi) (UniProt P21308)
Sequence (P21308 whole entry): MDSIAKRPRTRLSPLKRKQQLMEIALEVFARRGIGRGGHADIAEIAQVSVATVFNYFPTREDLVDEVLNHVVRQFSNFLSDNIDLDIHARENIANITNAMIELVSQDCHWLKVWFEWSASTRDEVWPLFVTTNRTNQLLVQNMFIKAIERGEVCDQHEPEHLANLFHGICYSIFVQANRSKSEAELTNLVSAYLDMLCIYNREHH
Test: Inhibition of LuxR quorum sensing system in Vibrio harveyi BB120 assessed as inhibition of autoinducer-2 induced luxR activity at 100 uM for 16 hrs by bioluminescence assay
Endpoint Label: inhibition (%)
Answer with a number only, understood to be in %.

Completed entries (count: 5):
# Entry Smiles, Test Target, Endpoint Label, Result Value
data = [
    ("NC(=O)/C=C/c1ccccc1", "HTH-type transcriptional regulator LuxR (Vibrio harveyi) (UniProt P21308)", "inhibition", 61),
    ("CCCCCCC/C=C/C=O", "HTH-type transcriptional regulator LuxR (Vibrio harveyi) (UniProt P21308)", "inhibition", 90),
    ("CC(=O)C1=CCCCC1", "HTH-type transcriptional regulator LuxR (Vibrio harveyi) (UniProt P21308)", "inhibition", 16),
    ("CC(=O)CCc1ccccc1", "HTH-type transcriptional regulator LuxR (Vibrio harveyi) (UniProt P21308)", "inhibition", 13),
    ("CCCCCCCC/C=C/C=O", "HTH-type transcriptional regulator LuxR (Vibrio harveyi) (UniProt P21308)", "inhibition", 94),
]

GET /values?readout=inhibition&system=HTH-type transcriptional regulator LuxR (Vibrio harveyi) (UniProt P21308)&item= CCCCCC/C=C/C(=O)CO
17
